# System: SNB-75 CNS
# PROTOCOL_SUMMARY: NCI tumour cell line growth inhibition, 48 h
Where a SMILES comes first, the peptide text is derived from it. Side-chain parts run from the residue outwards. The star is where a group is joined. Cbz = O=C(OCc1ccccc1)*; Boc = CC(C)(C)OC(=O)*
PROPERTY_NAME: TGI

Looking for the measured TGI of "COC(=O)C1=C2CO[C@@H]3C[C@H]4C(C)(C)CCC[C@]4(C)C(=CC1)[C@]23C" , can you help?
50.9 µM

Looking for the measured TGI of COC(=O)C1CCC(N2C(=O)CCC2C(=O)OC)=N1 (stereo unspecified) , can you help?
> 100 µM

Looking for the measured TGI of C[C@@H]1CCC2[C@@H](C)[C@H](OC(=O)CCC(=O)NCCNC(=O)Cc3cc(=O)oc4cc(N(C)C)ccc34)O[C@@H]3O[C@]4(C)CC[C@@H]1C23OO4 (stereo partly specified) , can you help?
29.2 µM

Looking for the measured TGI of "Oc1cccc2nc3cc(CN4CCOCC4)c(CN4CCOCC4)cc3nc12" , can you help?
> 100 µM

Looking for the measured TGI of C#CCOc1cccc(Nc2ncnc3c2ncn3C2CCN(C(=O)CCl)C2)c1 (stereo unspecified) , can you help?
> 100 µM

Looking for the measured TGI of "CCOC(=O)/C(=C\NC#N)c1nc2ccccc2[nH]1" , can you help?
> 100 µM

Looking for the measured TGI of "COc1cc(OC)c(NC2=NCCO2)cc1Cl" , can you help?
> 100 µM

Looking for the measured TGI of "c1cc(-c2cnn3nc(N4CCOCC4)ccc23)nc(NC2CC2)n1" , can you help?
18.6 µM

Looking for the measured TGI of "O=S(=O)(Nc1nc(-c2cc(O)c(O)c(O)c2)cs1)c1ccc(Cl)cc1Cl" , can you help?
77.6 µM

Looking for the measured TGI of "O=C(OCc1c(-c2ccccc2)nn(-c2ccccc2)c1COC(=O)Oc1ccccc1)Oc1ccccc1" , can you help?
> 100 µM

Looking for the measured TGI of "C=CC[C@@]1(C#N)C[C@H](C[C@]2(C#N)C[C@H](CCl)OC(C)(C)O2)OC(C)(C)O1" , can you help?
> 100 µM

Looking for the measured TGI of "CC(=O)NNc1nc(C)c(C(/C=C/c2ccc(Cl)cc2)=N/NC(=S)NN)s1" , can you help?
> 100 µM

Looking for the measured TGI of COc1cc(C2c3cc4c(cc3[C@@H](Nc3ccc(N5CCOCC5)cc3)C3COC(=O)[C@H]23)OCO4)cc(OC)c1O (stereo partly specified) , can you help?
78.2 µM

Looking for the measured TGI of "CNc1nc(=O)c(C#N)c(-c2ccc(C)cc2)s1" , can you help?
> 100 µM

Looking for the measured TGI of "C=C1C(=O)O[C@H]2[C@H]1CC/C(COC(=O)NCc1cccc(OC)c1)=C\CC[C@@]1(C)O[C@@H]21" , can you help?
24.7 µM

Looking for the measured TGI of "CCc1ccccc1NC(=O)C1=C(C)NC(C)=C(C(=O)Nc2ccccc2CC)C1c1ccc(NC(C)=O)cc1" , can you help?
> 100 µM

Looking for the measured TGI of "N/C(=N\N=C/c1cc(Cl)cc(Cl)c1O)NO" , can you help?
9.58 µM

Looking for the measured TGI of CC(C)CC(NC(=O)OCc1ccccc1)C(=O)NCCCCC(NC(=O)C(CCCCNC(=O)C(CC(C)C)NC(=O)OCc1ccccc1)NC(=O)C(CCCCNC(=O)C(CC(C)C)NC(=O)OCc1ccccc1)NC(=O)C(CCCCNC(=O)C(CC(C)C)NC(=O)OCc1ccccc1)NC(=O)OC(C)(C)C)C(=O)O (stereo unspecified) (Boc-K([Leu-Cbz])K([Leu-Cbz])K([Leu-Cbz])K([Leu-Cbz])-OH; configuration not given here) , can you help?
> 25 µM

Looking for the measured TGI of "O=C(Nc1ccc([N+](=O)[O-])cc1)c1cc2ccccc2cc1O" , can you help?
4.07 µM

Looking for the measured TGI of "CCOC(=O)CCc1c(C)c2c(O)cc(O)cc2oc1=O" , can you help?
> 100 µM

Looking for the measured TGI of "Nc1ccc(S(=O)(=O)c2ccc(N=[N+]([O-])c3ccc(S(=O)(=O)c4ccc(N)cc4)cc3)cc2)cc1" , can you help?
37.1 µM

Looking for the measured TGI of COC(=O)C1(Cc2ccc3c(c2)CCC3)Cc2cc3c(cc2C1=O)CCC3 (stereo unspecified) , can you help?
> 46.4 µM

Looking for the measured TGI of "Cc1cccc2cc3ccc4ccccc4c3cc12" , can you help?
> 100 µM

Looking for the measured TGI of "CSc1ccc(C(=O)/C=C/c2ccc(F)cc2)cc1" , can you help?
> 100 µM

Looking for the measured TGI of C=C(C)C(=O)N1c2ccc(OC)cc2CC1C(=O)OCC (stereo unspecified) , can you help?
> 100 µM

Looking for the measured TGI of CC[S+](C)c1ccc(-c2c3nc(c(-c4ccc([S+](C)CC)cc4)c4ccc([nH]4)c(-c4ccc([S+](C)CC)cc4)c4nc(c(-c5ccc([S+](C)CC)cc5)c5ccc2[nH]5)C=C4)C=C3)cc1 (stereo unspecified) , can you help?
> 100 µM

Looking for the measured TGI of CCC(c1nc2ccccc2c(=O)n1NC(=O)C(C)(C)C)C1(O)CCCCC1 (stereo unspecified) , can you help?
> 100 µM

Looking for the measured TGI of "CN(C)C(=O)CO/N=C1/C(c2c(O)[nH]c3ccccc23)=Nc2ccccc21" , can you help?
89.8 µM

Looking for the measured TGI of "CC(=O)[CH-]C(=O)c1ccccc1.CC(=O)[CH-]C(=O)c1ccccc1.CC[O-].O=C1C=C([O-])C(=O)c2ccccc21.[Ti+4]" , can you help?
> 100 µM

Looking for the measured TGI of "CN1CCN(c2ccc3nc(-c4ccc5nc(-c6ccc(N(C)CCCl)cc6)[nH]c5c4)[nH]c3c2)CC1" , can you help?
0.897 µM

Looking for the measured TGI of "CN1CCN(CCCCNc2cc3c4ccccc4c(NCCCCN4CCN(C)CC4)cc3c3ccccc23)CC1" , can you help?
7.8 µM

Looking for the measured TGI of "Nc1nc(SCc2ccccc2[N+](=O)[O-])c2[nH]cnc2n1" , can you help?
> 70.4 µM

Looking for the measured TGI of "COC(=O)Nc1nc2ccc(NS(=O)(=O)c3ccc(F)cc3)cc2[nH]1" , can you help?
70.1 µM

Looking for the measured TGI of O=C(Cc1ccccc1)NN1C(=O)C(Cl)C1c1ccccc1 (stereo unspecified) , can you help?
> 100 µM

Looking for the measured TGI of "O=C(O)C1=C(Cl)c2ccccc2S1(=O)=O" , can you help?
> 100 µM

Looking for the measured TGI of "COc1cccc2cc(N(C)c3nc(C)nc4ccsc34)ccc12" , can you help?
5.3 µM

====

Can you tell me TGI for the items I'm about to list?
# System: RXF 393 renal
# PROTOCOL_SUMMARY: NCI tumour cell line growth inhibition, 48 h
Give the value, in units of µM, as a plain number.

Hi! What's the reported TGI for C=CC1=C(C)C(Cc2[nH]c(/C=c3\[nH]/c(=C/C4=NC(=O)C(C)/C4=C\C)c(C)c3CCC(=O)O)c(CCC(=O)OC)c2C)NC1=O (stereo not drawn) on RXF 393 renal?
44

Hi! What's the reported TGI for CC(=O)O[C@@H]1CC2[C@@H](CCC3Cc4nc5c(nc4C[C@@]32C)CC2CC[C@@H]3C(CC[C@@]4(C)C3CC[C@@H]4C(C)CCCC(C)C)[C@@]2(C)C5)C2C[C@@H]3OC4(CCC(C)CO4)C(C)[C@@H]3[C@]21C (stereo partly drawn) on RXF 393 renal?
50.3

Hi! What's the reported TGI for COc1cc(C(=O)OC2CC(C)=CC[C@@]3(C)CC[C@](O)(C(C)C)C23)ccc1O (stereo partly drawn) on RXF 393 renal?
35.4

Hi! What's the reported TGI for "CN(C)C(=S)/N=c1\ssc(=S)n1Cc1ccccn1" on RXF 393 renal?
20

Hi! What's the reported TGI for CCC[CH2][Sn]1([CH2]CCC)[O]CC([CH2][Sn]([c]2ccccc2)([c]2ccccc2)[c]2ccccc2)[O]1 (stereo not drawn) on RXF 393 renal?
15.4

====

# Tested on: SF-268 CNS
# PROTOCOL_SUMMARY: NCI tumour cell line growth inhibition, 48 h
PROPERTY_NAME: GI50

Looking for the measured GI50 of "COc1ccc(-c2cc3nccn3c(Nc3ncccc3C(N)=O)n2)cc1OC" , can you help?
3.65 µM

Looking for the measured GI50 of "Clc1ccc2c(NCCN3CCN(c4ccnc(N5CCCC5)n4)CC3)ccnc2c1" , can you help?
2.73 µM

Looking for the measured GI50 of "OCCCCC#Cc1ccccc1C#Cc1cccs1" , can you help?
15.8 µM

Looking for the measured GI50 of "C=C(CN(CCN1CCOCC1)CC(=C)c1ccc(C(=O)Nc2ccccc2N)cc1)c1ccc(C(=O)Nc2ccccc2N)cc1" , can you help?
8.17 µM

Looking for the measured GI50 of "Cc1sc2c(c1C)C(c1ccc(Cl)cc1)=N[C@@H](CC(=O)Nc1ccc(O)cc1)c1nnc(C)n1-2" , can you help?
11.8 µM
